Sourced from patent US20250352675A1

Assay: Ex vivo biodistribution, organ-to-muscle ratio
Assay type: in vivo, mice
Settings: 1 nmol/mouse, 24 hours after administration
Quick reference: Organ-to-muscle ratio, skin of the listed items.
result.type: Organ-to-muscle ratio, skin

INSERT INTO measurements (molecule, obs_value) VALUES
  ('CC1(C)C(/C=C/C2=C(Oc3ccc(S(=O)(=O)O)cc3)C(=C/C=C3/N(CCCCS(=O)(=O)O)c4ccc(S(=O)(=O)O)cc4C3(C)C)/CCC2)=[N+](CCCCS(=O)(=O)[O-])c2ccc(C(=O)NCCCCCCCC(=O)Nc3nnc(S(N)(=O)=O)s3)cc21 [Compound 3]', '1.0 ± 0.1'),
  ('CC1(C)C(/C=C/C2=C(Oc3ccc(CCC(=O)NCCCCCCCC(=O)Nc4nnc(S(N)(=O)=O)s4)cc3)C(=C/C=C3/N(CCCCS(=O)(=O)O)c4ccc(S(=O)(=O)O)cc4C3(C)C)/CCC2)=[N+](CCCCS(=O)(=O)[O-])c2ccc(S(=O)(=O)O)cc21 [HF-1, reference compound]', '1.4 ± 0.0'),
  ('CC1(C)C(/C=C/C=C/C=C/C=C2/N(CCCCS(=O)(=O)O)c3ccc(C(=O)NC[C@H](O)[C@@H](O)[C@H](O)[C@H](O)CO)cc3C2(C)C)=[N+](CCCCS(=O)(=O)[O-])c2ccc(C(=O)NCCCCCCCC(=O)Nc3nnc(S(N)(=O)=O)s3)cc21 [Compound 1]', '1.1 ± 0.2'),
  ('CC1(C)C(/C=C/C=C/C=C/C=C2/N(CCCCS(=O)(=O)O)c3ccc(S(=O)(=O)O)cc3C2(C)C)=[N+](CCCCS(=O)(=O)[O-])c2ccc(C(=O)NCCCCCCCC(=O)Nc3nnc(S(N)(=O)=O)s3)cc21 [Compound 2]', '1.6 ± 0.4');
